Cited source: ChEMBL document CHEMBL1255490

Test system: Mycobacterium avium
ASSAY PROTOCOL: Antimycobacterial activity against Mycobacterium avium serovar 8 after 14 days by agar dilution method
Assay type: functional
STUDY CONDITIONS: serovar 8, 336 h
PROPERTY: MIC50

INSERT INTO results (compound, measured_result) VALUES
  ('COc1c(N2CCNC(C)C2)c(F)cc2c(=O)c(C(=O)O)cn(C3CC3)c12 (centres undefined)', '2 µg/mL'),
  ('CO[C@H]1/C=C/O[C@@]2(C)Oc3c(C)c(O)c4c(O)c(c(/C=N/N5CCN(C)CC5)c(O)c4c3C2=O)NC(=O)/C(C)=C\C=C\[C@H](C)[C@H](O)[C@@H](C)[C@@H](O)[C@@H](C)[C@H](OC(C)=O)[C@@H]1C', '32 µg/mL'),
  ('COc1c(N2CC3(CC3)[C@](C)(N)C2)c(F)cc2c(=O)c(C(=O)O)cn([C@@H]3C[C@@H]3F)c12', '1 µg/mL'),
  ('C[C@H]1COc2c(N3CCN(C)CC3)c(F)cc3c(=O)c(C(=O)O)cn1c23.C[C@H]1COc2c(N3CCN(C)CC3)c(F)cc3c(=O)c(C(=O)O)cn1c23.O', '8 µg/mL');
